The origin of these recorded values is paper PMC4288179.

Target: T1, HsLARP6(70-300) R237A (Homo sapiens, UniProt Q9BRS8 70-300, R237A)
T1 sequence: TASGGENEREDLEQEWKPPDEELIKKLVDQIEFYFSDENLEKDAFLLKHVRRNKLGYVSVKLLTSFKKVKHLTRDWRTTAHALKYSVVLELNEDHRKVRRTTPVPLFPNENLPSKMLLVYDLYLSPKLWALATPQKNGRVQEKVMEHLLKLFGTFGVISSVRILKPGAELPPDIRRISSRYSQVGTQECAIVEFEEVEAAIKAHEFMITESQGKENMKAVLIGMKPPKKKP
Assay: ITC; ITC: 20 mM Tris pH 7.25, 100 mM KCl, 5 mM MgCl2, 1 mM DTT, 298 K; protein titrated into RNA
Conditions: protein: recombinant; tags: N-terminal His6 (TEV-cleavable); stem-loop with internal bulge
test-readout: Kd
Write the figure, then the unit, nothing else.

Fill blank: measured Kd of the binder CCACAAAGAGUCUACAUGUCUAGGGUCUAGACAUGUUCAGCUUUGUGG (structured_RNA) [48 nt RNA (collagen alpha1(I) 5' UTR SL)] is ____.
15 nM
